- TARGET_OR_TEST_SYSTEM: purified Human plasma Kallikrein (Homo sapiens (Human))
- ASSAY_TEXT: Kallikrein Assay
- Assay type: biochemical
- ASSAY_CONTEXT: purified Human plasma Kallikrein 0.5 nM; substrate Acetyl-K-P-R-AFC; 50 mM HEPES pH 7.4; Ki from IC50 by Cheng Prusoff

COMPOUND: COC(=O)Nc1ccc2c(c1)NC(=O)CCCCC(c1ccc(-c3cc(Cl)ccc3-n3cnnn3)c[n+]1[O-])c1cc-2[n+]([O-])cc1F (single isomer, unassigned)
UNIT_TEXT: nM
Ki: 0.46
--
COMPOUND: COC(=O)Nc1ccc2c(c1)NC(=O)CCCCC(c1ccc(-c3c(F)cccc3OC(F)F)c[n+]1[O-])c1nc-2c[nH]1 (single isomer, unassigned)
UNIT_TEXT: nM
Ki: 3.9
--
COMPOUND: CCc1[nH]c2nc1-c1ccc(NC(=O)OC)cc1NC(=O)CCCC[C@@H]2c1ccc(-c2cc(F)ccc2OC(F)(F)F)c[n+]1[O-] (single isomer, unassigned)
UNIT_TEXT: nM
Ki: 5.08

* * *

- TARGET_OR_TEST_SYSTEM: purified Human plasma Kallikrein (Homo sapiens (Human), UniProt P03952)
- Sequence (P03952 391-638): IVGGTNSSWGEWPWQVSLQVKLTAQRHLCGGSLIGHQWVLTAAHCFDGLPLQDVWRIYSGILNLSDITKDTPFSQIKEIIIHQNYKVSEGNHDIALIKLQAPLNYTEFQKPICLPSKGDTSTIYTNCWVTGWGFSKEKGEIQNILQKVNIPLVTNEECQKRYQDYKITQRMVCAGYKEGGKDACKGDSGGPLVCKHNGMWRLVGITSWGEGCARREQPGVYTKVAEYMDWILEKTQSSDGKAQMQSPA
- Sequence (P03952 20-390 partner): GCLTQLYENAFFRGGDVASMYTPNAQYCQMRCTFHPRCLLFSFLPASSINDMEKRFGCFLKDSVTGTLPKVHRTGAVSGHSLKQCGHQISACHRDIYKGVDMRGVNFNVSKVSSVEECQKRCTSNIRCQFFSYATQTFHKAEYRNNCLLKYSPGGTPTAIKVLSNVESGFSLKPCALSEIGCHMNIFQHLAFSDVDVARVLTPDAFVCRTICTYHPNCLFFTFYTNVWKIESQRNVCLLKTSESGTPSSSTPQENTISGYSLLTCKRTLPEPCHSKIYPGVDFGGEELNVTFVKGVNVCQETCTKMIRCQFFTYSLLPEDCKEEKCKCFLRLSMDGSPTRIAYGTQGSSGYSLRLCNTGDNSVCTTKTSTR
- ASSAY_TEXT: Kallikrein Assay
- Type: biochemical
- ASSAY_CONTEXT: purified Human plasma Kallikrein 0.5 nM; substrate Acetyl-K-P-R-AFC; 50 mM HEPES pH 7.4; Ki from IC50 by Cheng Prusoff

COMPOUND: COC(=O)Nc1ccc2c(c1)NC(=O)C(C)CCCC(c1ccc(-c3c(F)ccc(Cl)c3F)c[n+]1[O-])c1nc-2c[nH]1 (single isomer, unassigned) [Example 114-c]
TARGET_OR_TEST_SYSTEM: purified Human plasma Kallikrein (Homo sapiens (Human), UniProt P03952)
UNIT_TEXT: nM
Ki: 0.78
//
COMPOUND: COC(=O)Nc1ccc2c(c1)NC(=O)[C@H](C)CCC[C@H](c1ccc(-c3cc(F)ccc3OC(F)(F)F)c[n+]1[O-])c1nc-2c(C)[nH]1 (single isomer, unassigned)
TARGET_OR_TEST_SYSTEM: purified Human plasma Kallikrein (Homo sapiens (Human), UniProt P03952)
UNIT_TEXT: nM
Ki: 2.02
//
COMPOUND: COC(=O)Nc1ccc2c(c1)NC(=O)CCCCC(c1ccc(-c3c(OC(F)F)ccc(Cl)c3F)c[n+]1[O-])c1nc-2c[nH]1 (single isomer, unassigned)
TARGET_OR_TEST_SYSTEM: purified Human plasma Kallikrein (Homo sapiens (Human), UniProt P03952)
UNIT_TEXT: nM
Ki: 1.02

* * *

Property: pKi; scope: individual compounds
- TARGET_OR_TEST_SYSTEM: purified Human plasma Kallikrein (Homo sapiens (Human), UniProt P03952)
- ASSAY_TEXT: Kallikrein Assay
- Assay type: biochemical
- ASSAY_CONTEXT: purified Human plasma Kallikrein 0.5 nM; substrate Acetyl-K-P-R-AFC; 50 mM HEPES pH 7.4; Ki from IC50 by Cheng Prusoff
pKi: −log10 of the molar value.

COMPOUND: O=C(C1CCCCC(c2ccc(-c3cc(Cl)ccc3-n3cnnn3)c[n+]2[O-])c2cccc(c2)-c2cc(F)ccc2N1)N1CCCC1 (single isomer, unassigned) [Example 79-d]
TARGET_OR_TEST_SYSTEM: purified Human plasma Kallikrein (Homo sapiens (Human), UniProt P03952)
pKi: 5.66
//
COMPOUND: COC(=O)Nc1ccc2c(c1)NC(=O)CC1CC1CC(c1ccc(-c3c(OC(F)F)ccc(Cl)c3F)c[n+]1[O-])c1nc-2c(C)[nH]1 (racemic)
TARGET_OR_TEST_SYSTEM: purified Human plasma Kallikrein (Homo sapiens (Human), UniProt P03952)
pKi: 8.46
//
COMPOUND: COC(=O)Nc1ccc2c(c1)NC(=O)CCCCC(c1ccc(-c3cc(Cl)ccc3OC(F)(F)F)c[n+]1[O-])c1nc-2c[nH]1 (single isomer, unassigned)
TARGET_OR_TEST_SYSTEM: purified Human plasma Kallikrein (Homo sapiens (Human), UniProt P03952)
pKi: 8.92
//
COMPOUND: COC(=O)Nc1ccc2c(c1)NC(=O)[C@@H](C)CCC[C@H](c1ccc(-c3c(F)cccc3F)c[n+]1[O-])c1nc-2c(C2CC2)[nH]1 (single isomer, unassigned)
TARGET_OR_TEST_SYSTEM: purified Human plasma Kallikrein (Homo sapiens (Human), UniProt P03952)
pKi: 8.96
//
COMPOUND: O=C1CCCCC(c2ccc(-c3cc(F)ccc3-n3cnnn3)c[n+]2[O-])c2cccc(c2)-c2cc(F)ccc2N1 (single isomer, unassigned)
TARGET_OR_TEST_SYSTEM: purified Human plasma Kallikrein (Homo sapiens (Human), UniProt P03952)
pKi: 7.87
//
COMPOUND: COC(=O)Nc1ccc2c(c1)NC(=O)CCCC[C@H](c1ccc(-c3cc(Cl)ccc3-n3cc(C4CC4)nn3)c[n+]1[O-])c1cccc-2c1 (single isomer, unassigned)
TARGET_OR_TEST_SYSTEM: purified Human plasma Kallikrein (Homo sapiens (Human), UniProt P03952)
pKi: 9.02
//
COMPOUND: O=C1CCCCC(c2ccc(-c3c(-n4cnnn4)ccc(Cl)c3F)c[n+]2[O-])c2cccc(c2)-c2cc(C(=O)O)ccc2N1 (single isomer, unassigned)
TARGET_OR_TEST_SYSTEM: purified Human plasma Kallikrein (Homo sapiens (Human), UniProt P03952)
pKi: 8.50
//
COMPOUND: COC(=O)Nc1ccc2c(c1)NC(=O)CCCCC(c1ccc(-c3c(F)ccc(Cl)c3F)c[n+]1[O-])c1nc-2c(Cl)[nH]1 (single isomer, unassigned)
TARGET_OR_TEST_SYSTEM: purified Human plasma Kallikrein (Homo sapiens (Human), UniProt P03952)
pKi: 9.68
//
COMPOUND: COC(=O)Nc1ccc2c(c1)NC(=O)CCCC[C@H](c1ccc(-c3cc(Cl)ccc3C#N)c[n+]1[O-])c1cccc-2c1 (single isomer, unassigned)
TARGET_OR_TEST_SYSTEM: purified Human plasma Kallikrein (Homo sapiens (Human), UniProt P03952)
pKi: 8.57
//
COMPOUND: COC(=O)Nc1ccc2c(c1)NC(=O)CCCCC(c1ccc(-c3cc(Cl)ccc3-n3cnnn3)cn1)c1cc-2ncn1 (stereo not shown)
TARGET_OR_TEST_SYSTEM: purified Human plasma Kallikrein (Homo sapiens (Human), UniProt P03952)
pKi: 8.22
//
COMPOUND: COC(=O)Nc1ccc2c(c1)NC(=O)C(C)CCCC(c1ccc(-c3c(F)ccc(Cl)c3F)c[n+]1[O-])c1ccc(F)c-2c1 (single isomer, unassigned) [Example 86-a]
TARGET_OR_TEST_SYSTEM: purified Human plasma Kallikrein (Homo sapiens (Human), UniProt P03952)
pKi: 8.89
//
COMPOUND: O=C1CCCC[C@H](c2ccc(-c3cc(Cl)ccc3-c3cnco3)c[n+]2[O-])c2nc(c[nH]2)-c2cc(F)ccc2N1 (single isomer, unassigned)
TARGET_OR_TEST_SYSTEM: purified Human plasma Kallikrein (Homo sapiens (Human), UniProt P03952)
pKi: 7.43
//
COMPOUND: COC(=O)Nc1ccc2c(c1)NC(=O)CCCC[C@H](c1ccc(-c3c(F)ccc(Cl)c3F)c[n+]1[O-])c1ccc(F)c-2c1 (single isomer, unassigned)
TARGET_OR_TEST_SYSTEM: purified Human plasma Kallikrein (Homo sapiens (Human), UniProt P03952)
pKi: 8.68

Source listed as patent US10214512B2.
